Tested on: Human alphaherpesvirus 1
Test: Evaluation of antiviral activity against Herpes simplex virus type 1 (HSV-1) strain KOS.
Format: functional
Label Satisfied when MIC50 is strictly below 2 µg/mL; otherwise label Not satisfied.

Study these solved cases before continuing.
O=c1[nH]c(=O)n([C@H]2C[C@H](O)[C@@H](CO)O2)cc1/C=C/Br [BRIVUDINE] | Satisfied
O=c1[nH]c(=O)n([C@H]2C[C@H](O)[C@@H](CO)O2)cc1F [FLOXURIDINE] | Not satisfied
O=c1[nH]c(=O)n([C@H]2C[C@H](O)[C@@H](COP(=O)(O)O)O2)cc1Br | Satisfied

Challenge: Determine if O=c1[nH]c(=O)n([C@H]2C[C@H](O)[C@@H](COP(=O)(O)O)O2)cc1I shows MIC50 strictly lower than 2 µg/mL.
Response given: Satisfied

Challenge: Likewise for O=c1[nH]c(=O)n([C@H]2C[C@H](O)[C@@H](CO)O2)cc1C(F)(F)F [TRIFLURIDINE] ?
Response given: Satisfied

Challenge: Likewise for N.O=c1[nH]c(=O)n([C@H]2C[C@@H]3O[PH](O)(O)OC[C@H]3O2)cc1F ?
Response given: Not satisfied

Challenge: Likewise for O=c1[nH]c(=O)n([C@H]2C[C@H](O)[C@@H](CO)O2)cc1I [IDOXURIDINE] ?
Response given: Satisfied

// data source = ChEMBL document CHEMBL1123311
